# System: IGROV1 ovarian
# method: NCI tumour cell line growth inhibition, 48 h
Recorded TGI, one value per entry.

Solved cases (5 shown):
Measured TGI of CCOc1ccc(C(C)c2cc3c(cc2OC)OCO3)cc1 (configuration not stated) : > 100 µM

In plain terms, O=c1[nH]c2nccn2c2c1SCCN2 has a documented TGI of > 100 µM

What the record says about COc1ccc(-c2ncn(C[Si](C)(C)C)c2-c2ccc(OC)cc2)cc1 : TGI is 23.1 µM

The reported TGI of the compound Cc1ccc(S(=O)(=O)N/N=C2\CC3CC4CCC2C4C3)cc1 (configuration not stated) was > 100 µM

CN(C)CCOc1ccc(-c2c(Oc3ccccc3)c(=O)oc3ccccc23)cc1 yielded TGI of 25.2 µM

***
Sure, the documented TGI for COC(=O)[C@@H](C)[C@H]1CC[C@@](C)(CCC2=C(C)CC3C=C(C)CCC3C2(C)C)OO1 (some centres not stated) is 3.06 µM

Entry N/C(=N\Nc1ccc(Cl)cc1)c1cnccn1 , TGI reported as > 100 µM

compound CC(=O)NC(CSC1=C2NC(=O)\C=C/C=C/C=C\C(C)C(O)CC(=O)/C(C)=C\CC(O)/C=C/C(C)C(O)C(C)C=C(C)C(=O)c3c(O)c(C)cc(c3C1=O)C2=O)C(=O)O (configuration not stated) , TGI observed: > 100 µM

Field TGI (entry Cc1[nH]c(N)nc(=S)c1CCC(=O)O ) reads > 100 µM

Lab note: measured TGI of NCCNC(=O)c1cccc2cc3ccccc3nc12 was > 28.6 µM

TGI reading for COC(=O)c1c(C)cccc1C1CN=NC12Cc1cc(C)cc(C)c1C2=O (configuration not stated) : > 100 µM

Just so you know, measured TGI for COc1ccc2c(c1)NC1(O)c3ccccc3C(=O)C21O (configuration not stated) came out at > 100 µM

###

Measured GI50 of individual entries
# System: NCI-H23 lung
# method: NCI tumour cell line growth inhibition, 48 h

Example cases with answers are listed next.
Entry under test: CC([C@H]1CC=C2C3CCC4=C[C@@H](N(C)C)CC[C@]4(C)C3CC[C@@]21C)N(C)C (stereo not given in full) . Its GI50 was 3.15 µM

The recorded GI50 for entry COc1ccc(/C=C2\SC(=Nc3ccccc3)NC2=O)cc1 equals 8.6 µM

Looking up Cc1c(N)nc(C(CC(N)=O)NCC(N)C(N)=O)nc1C(=O)NC(C(=O)NC(C)C(O)C(C)C(=O)NC(C(=O)NCCc1nc(-c2nc(C(=O)NCCCNC(C)c3ccccc3)cs2)cs1)C(C)O)C(OC1OC(CO)C(O)C(O)C1OC1OC(CO)C(O)C(OC(N)=O)C1O)c1cnc[nH]1 (stereo not given) , I see its GI50 listed as 3.31 µM

GI50 for NC(N)=NC(N)=NCCCc1ccco1 is 463 µM

# ---- query compound ----
response.value for O=c1oc2cc(OC/C(=N/O)c3ccc(F)cc3)ccc2c2ccccc12 (field: GI50) = 19.1 µM

###

# System: RXF 393 renal
# method: NCI tumour cell line growth inhibition, 48 h
value-kind: TGI

Record Cc1ccc(S(=O)(=O)OC(COC(=O)c2ccccc2)C(OS(=O)(=O)c2ccc(C)cc2)C(OS(=O)(=O)c2ccc(C)cc2)C(COC(=O)c2ccccc2)OS(=O)(=O)c2ccc(C)cc2)cc1 (stereo unspecified) . Reported TGI: > 100 µM

Form: molecule = CCC(CC)(CO)CNc1cc(Cl)nc(N)n1 ; TGI = > 100 µM

Memo: O=C(c1cccs1)N1CCCN(C(=O)c2cccs2)C1=S , reported TGI: > 100 µM
